# testSystem: UniProtKB A1U3L3
# Sequence (A1U3L3 1-661): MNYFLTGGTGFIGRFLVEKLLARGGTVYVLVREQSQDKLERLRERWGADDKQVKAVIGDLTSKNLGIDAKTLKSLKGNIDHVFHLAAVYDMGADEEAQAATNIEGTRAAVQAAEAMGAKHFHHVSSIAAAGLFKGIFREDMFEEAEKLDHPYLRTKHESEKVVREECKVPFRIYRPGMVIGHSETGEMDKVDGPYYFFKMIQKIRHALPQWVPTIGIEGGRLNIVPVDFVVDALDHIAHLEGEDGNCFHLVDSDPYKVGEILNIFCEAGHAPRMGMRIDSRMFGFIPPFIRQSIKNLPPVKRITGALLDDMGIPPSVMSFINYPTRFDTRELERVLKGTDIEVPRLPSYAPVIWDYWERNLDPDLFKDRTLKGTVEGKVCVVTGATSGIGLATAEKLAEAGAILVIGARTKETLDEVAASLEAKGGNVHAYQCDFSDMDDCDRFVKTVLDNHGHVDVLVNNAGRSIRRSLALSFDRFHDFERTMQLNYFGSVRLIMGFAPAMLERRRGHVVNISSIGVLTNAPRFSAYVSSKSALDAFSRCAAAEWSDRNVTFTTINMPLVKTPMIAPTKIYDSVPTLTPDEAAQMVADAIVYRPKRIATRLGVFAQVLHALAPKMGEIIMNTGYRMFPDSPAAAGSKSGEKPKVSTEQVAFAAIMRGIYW
# measurementProtocol: Continuous spectrophotometric DTNB assay (release of free CoA)
# Type: biochemical
# details: percent of the specific activity of palmitoyl-CoA; 6 μM substrate
property: % Specific Activity of Palmitoyl-CoA (%)
Give bare numbers, in %.

Worked examples follow.
| compound | measValue |
| --- | --- |
| CCCCCCCCCCCCCCCCCC(=O)SCCNC(=O)CCNC(=O)[C@H](O)C(C)(C)COP(=O)(O)OP(=O)(O)OC[C@H]1O[C@@H](n2cnc3c(N)ncnc32)[C@H](O)[C@@H]1OP(=O)(O)O [Stearoyl-CoA] | 69 |
| CCCCCCCC/C=C\CCCCCCCC(=O)SCCNC(=O)CCNC(=O)[C@H](O)C(C)(C)COP(=O)(O)OP(=O)(O)OC[C@H]1O[C@@H](n2cnc3c(N)ncnc32)[C@H](O)[C@@H]1OP(=O)(O)O [Oleyl-CoA] | 76 |
| CCCCCCCCCCCCCCCC(=O)SCCNC(=O)CCNC(=O)[C@H](O)C(C)(C)COP(=O)(O)OP(=O)(O)OC[C@H]1O[C@@H](n2cnc3c(N)ncnc32)[C@H](O)[C@@H]1OP(=O)(O)O [Palmitoyl-CoA] | 100 |
| CCCCCC/C=C\CCCCCCCC(=O)SCCNC(=O)CCNC(=O)[C@H](O)C(C)(C)COP(=O)(O)OP(=O)(O)OC[C@H]1O[C@@H](n2cnc3c(N)ncnc32)[C@H](O)[C@@H]1OP(=O)(O)O [Palmitoleyl-CoA] | 93 |

Here is the next item to consider.
Ask | I would be grateful if you could share the reported % Specific Activity of Palmitoyl-CoA for CCCCC/C=C\C/C=C\C/C=C\C/C=C\CCCC(=O)SCCNC(=O)CCNC(=O)[C@H](O)C(C)(C)COP(=O)(O)OP(=O)(O)OC[C@H]1O[C@@H](n2cnc3c(N)ncnc32)[C@H](O)[C@@H]1OP(=O)(O)O [Arachidonoyl-CoA] .
Reply | 93
